Target: BTK T474I (Homo sapiens, UniProt Q06187, T474I)
Sequence (Q06187 whole entry T474I): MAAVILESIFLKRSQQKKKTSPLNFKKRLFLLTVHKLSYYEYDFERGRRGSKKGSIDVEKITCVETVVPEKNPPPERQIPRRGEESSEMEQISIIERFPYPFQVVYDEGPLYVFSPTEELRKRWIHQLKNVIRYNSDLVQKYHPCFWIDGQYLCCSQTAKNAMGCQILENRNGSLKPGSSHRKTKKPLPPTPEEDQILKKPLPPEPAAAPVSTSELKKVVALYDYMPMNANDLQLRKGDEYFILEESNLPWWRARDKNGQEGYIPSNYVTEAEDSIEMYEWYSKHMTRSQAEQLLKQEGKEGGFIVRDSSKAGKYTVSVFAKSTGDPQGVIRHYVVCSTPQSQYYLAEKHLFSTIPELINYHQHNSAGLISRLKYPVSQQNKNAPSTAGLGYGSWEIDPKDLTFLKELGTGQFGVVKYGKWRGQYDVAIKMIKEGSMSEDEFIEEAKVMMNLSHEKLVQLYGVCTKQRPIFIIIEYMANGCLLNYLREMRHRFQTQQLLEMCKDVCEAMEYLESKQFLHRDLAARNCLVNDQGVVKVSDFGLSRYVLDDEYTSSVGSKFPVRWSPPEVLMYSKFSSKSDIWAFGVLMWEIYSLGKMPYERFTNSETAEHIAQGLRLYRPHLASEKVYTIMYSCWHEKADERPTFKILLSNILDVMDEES
Test: Kinase activity inhibition assay (HTRF TK Kit)
pIC50: −log10 of the molar value.
MEASURE: pIC50

Field: example entries. Status: answers known.
{"columns": ["COMPOUND", "RESULT"],
 "data": [
  ["COc1ccc(F)cc1C(=O)NCc1ccc(-c2ncc(-c3ccc(C(C)(C)O)cn3)c3[nH]nc(N)c23)cc1 [Example 65]", "8.30 to 9.00"],
  ["COc1ccc(F)cc1C(=O)NCc1ccc(-c2ncc(-c3ccn(C)n3)c3[nH]nc(N)c23)cc1 [Example 23]", "6.30 to 7.30"],
  ["CCN1CCc2nc(-c3cnc(-c4ccc(CNC(=O)c5cc(F)ccc5OC)cc4)c4c(N)n[nH]c34)sc2C1 [Example 101]", "7.30 to 8.30"],
  ["COc1ccc(F)cc1C(=O)NCc1ccc(-c2ncc(-c3nc4cccnc4s3)c3[nH]nc(N)c23)cc1 [Example 100]", "6.30 to 7.30"],
  ["COc1ccc(F)cc1C(=O)NCc1ccc(-c2ncc(-c3cc(NC(=O)C4CC4)ccn3)c3[nH]nc(N)c23)cc1 [Example 80]", "6.30 to 7.30"]
]}

Entry COc1ccc(F)cc1C(=O)NCc1ccc(-c2ncc(-c3cc[nH]n3)c3[nH]nc(N)c23)cc1 [Example 31] ; pIC50 = 6.30 to 7.30

Value of pIC50 reported for the compound COc1ccc(F)cc1C(=O)NCc1ccc(-c2nc(C3CCSCC3)cc3[nH]nc(N)c23)cc1 [Example 91] is 6.30 to 7.30

Sure, the documented pIC50 for COc1ccc(F)cc1C(=O)NCc1ccc(-c2ncc(-c3ccn(CC(F)(F)F)n3)c3[nH]nc(N)c23)cc1 [Example 28] is 6.30 to 7.30

// COc1ccc(F)cc1C(=O)NCc1ccc(-c2ncc(-c3cc4n(n3)CCN(C)C4)c3[nH]nc(N)c23)cc1 [Example 71] : pIC50 value = 7.30 to 8.30

COc1ccc(F)cc1C(=O)NCc1ccc(-c2ncc(-c3ccc(Cl)cn3)c3[nH]nc(N)c23)cc1 [Example 38] has a reported pIC50 of 6.30 to 7.30

Per the records, this compound ( COc1ccc(F)cc1C(=O)NCc1ccc(-c2nc(C(C)C(F)(F)F)c(-c3ncccn3)c3[nH]nc(N)c23)cc1 (stereo not shown) [Example 7] ) has pIC50 equal to 6.30 to 7.30

The compound COc1ccc(F)cc1C(=O)NCc1ccc(-c2ncc(-c3cn(C)cn3)c3[nH]nc(N)c23)cc1 [Example 30] showed pIC50 equal to 6.30 to 7.30

Query COCCOc1ccc(-c2cnc(-c3ccc(CNC(=O)c4cc(F)ccc4OC)cc3)c3c(N)n[nH]c23)nc1 [Example 59] yields pIC50 of 7.30 to 8.30

The recorded pIC50 for entry COc1ccc(F)cc1C(=O)NCc1ccc(-c2ncc(-c3cc4cnccn4n3)c3[nH]nc(N)c23)cc1 [Example 78] equals 7.30 to 8.30

So for COc1ccc(F)cc1C(=O)NCc1ccc(-c2ncc(-c3ccc(OCCN4CCCC4)cn3)c3[nH]nc(N)c23)cc1 [Example 62] , the logged pIC50 turned out to be 7.30 to 8.30

compound COc1ccc(F)cc1C(=O)NCc1ccc(-c2ncc(-c3ccc4nccn4n3)c3[nH]nc(N)c23)cc1 [Example 51] , pIC50 observed: 6.30 to 7.30

Please fill in: pIC50 reported for COc1ccc(F)cc1C(=O)NCc1ccc(-c2ncc(-c3nc4cnccn4n3)c3[nH]nc(N)c23)cc1 [Example 57] = 6.30 to 7.30

For record C=CC(=O)N1CCCC(c2cc3[nH]nc(N)c3c(-c3ccc(CNC(=O)c4cc(F)ccc4OC)cc3)n2)C1 (stereo not shown) [Example 96] the listed pIC50 is 7.30 to 8.30

Notebook: COc1ccc(F)cc1C(=O)NCc1ccc(-c2ncc(-c3ccc(CN4CCN(C)CC4)cn3)c3[nH]nc(N)c23)cc1 [Example 68] , pIC50 read as 7.30 to 8.30

Reported pIC50 ( COc1ccc(F)cc1C(=O)NCc1ccc(-c2ncc(-c3cccnc3)c3[nH]nc(N)c23)cc1 [Example 105] ) = < 6.30

Form field pIC50, entry COc1ccc(F)cc1C(=O)NCc1ccc(-c2ncc(-c3cc4ccccn4n3)c3[nH]nc(N)c23)cc1 [Example 69] : 7.30 to 8.30

Form: compound = COc1ccc(F)cc1C(=O)NCc1ccc(-c2ncc(-c3ccc(CN4CCCCC4)cn3)c3[nH]nc(N)c23)cc1 [Example 66] ; pIC50 = 7.30 to 8.30

pIC50 measured on CNC(=O)Cn1ccc(-c2cnc(-c3ccc(CNC(=O)c4cc(F)ccc4OC)cc3)c3c(N)n[nH]c23)n1 [Example 26] = 6.30 to 7.30

The reported pIC50 of the compound COc1ccc(F)cc1C(=O)NCc1ccc(-c2ncc(-c3ccc(N4CCOCC4)cn3)c3[nH]nc(N)c23)cc1 [Example 76] was 8.30 to 9.00

Entry COc1ccc(F)cc1C(=O)NCc1ccc(-c2ncc(-c3ccc4cn[nH]c4n3)c3[nH]nc(N)c23)cc1 [Example 47] — recorded pIC50 = 6.30 to 7.30

// pIC50 lookup, compound = COc1ccc(F)cc1C(=O)NCc1ccc(-c2ncc(-c3ncc(C)cn3)c3[nH]nc(N)c23)cc1 [Example 39] , result: 7.30 to 8.30

The reported value for COc1ccc(F)cc1C(=O)NCc1ccc(-c2ncc(-c3ccc(C(=O)N4C[C@H](C)O[C@@H](C)C4)cn3)c3[nH]nc(N)c23)cc1 [Example 53] in terms of pIC50 is 6.30 to 7.30

For record COc1ccc(F)cc1C(=O)NCc1ccc(-c2nc(C(C)C(F)(F)F)c(-c3ncccn3)c3[nH]nc(N)c23)cc1 (single isomer, unassigned) [Example 7-1] the listed pIC50 is 6.30 to 7.30
